molecular target: Human HDAC5 (Homo sapiens, UniProt Q9UQL6); construct: full length with C-terminal His tag, MW=51.1 kDa; His (C); host or cells: baculovirus expression system; experiment: HDAC5 biochemical assay, class IIa-specific substrate; settings: read-out: HDAC Isoform IC50 (nM) 5
Sequence (Q9UQL6 656-1122 limits assumed): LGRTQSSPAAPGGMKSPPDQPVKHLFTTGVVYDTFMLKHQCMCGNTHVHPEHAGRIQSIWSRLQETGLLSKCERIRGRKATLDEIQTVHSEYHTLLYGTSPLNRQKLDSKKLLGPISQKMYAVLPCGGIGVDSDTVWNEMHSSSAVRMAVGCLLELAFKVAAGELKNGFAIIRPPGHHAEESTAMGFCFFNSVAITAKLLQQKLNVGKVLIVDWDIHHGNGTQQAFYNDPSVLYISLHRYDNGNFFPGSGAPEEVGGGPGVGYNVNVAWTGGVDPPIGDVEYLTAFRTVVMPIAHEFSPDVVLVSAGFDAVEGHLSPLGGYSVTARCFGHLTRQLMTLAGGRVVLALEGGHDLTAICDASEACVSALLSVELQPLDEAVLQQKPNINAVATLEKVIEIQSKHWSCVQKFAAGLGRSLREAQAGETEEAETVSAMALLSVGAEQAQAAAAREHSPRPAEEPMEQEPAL
Entries annotated with measured IC50

The cases that follow already have their IC50 on record.
> print(dat)
                                   molecule    observed
1  FC(F)(F)c1nc(-c2ccc(CN(c3cnccn3)c3nccc(N4CCCC4)n3)s2)no1 [Example AV]  ≤ 10000 nM
2  COCc1nccnc1N(Cc1ccc(-c2noc(C(F)(F)F)n2)s1)c1cnccn1 [Example BG]   ≤ 1000 nM
3  FC(F)(F)c1nc(-c2ccc(CN(c3cnccn3)c3cnsn3)s2)no1 [Example S]  ≤ 10000 nM
4  FC(F)(F)c1nc(-c2ccc(CN(c3cnccn3)c3cncnc3C(F)(F)F)s2)no1 [Example DA]  ≤ 10000 nM
5  CC1(c2cnnc(N(Cc3ccc(-c4noc(C(F)(F)F)n4)s3)c3cnccn3)c2)COC1 [Example GT]   ≤ 1000 nM

Please find the next molecule below.
Field: IC50 (Human HDAC5 (Homo sapiens, UniProt Q9UQL6)). Entry: Nc1cnnc(N(Cc2ccc(-c3noc(C(F)(F)F)n3)s2)c2cnccn2)c1 [Example FL]
≤ 500 nM
